assay.explanation: Half life in dog plasma
Format: ADME, organism-based, Canis lupus familiaris
Entries are grouped by half-life into these classes: lo (below 2 h), mid (2 h to below 4 h), hi (4 h or more)

// known answers, use as guide
* Oc1nc2ccccc2cc1-c1cc2cc(OCCN3CCCCC3)ccc2[nH]1 | lo
* CN1CCN(C(=O)c2ccc3[nH]c(-c4cc5ccccc5nc4O)cc3c2)CC1 | mid
* NC1CCN(S(=O)(=O)c2ccc3[nH]c(-c4cc5ccccc5nc4O)cc3c2)C1 (configuration not stated) | mid
* O=c1[nH]c2ccccc2cc1-c1cc2cc(S(=O)(=O)N3CCNCC3)ccc2[nH]1 | hi

Exam item: assign COCCN(C)CCOc1ccc2[nH]c(-c3cc4ccccc4nc3O)cc2c1 to the correct category.
lo

Exam item: assign O=C(c1ccc2[nH]c(-c3cc4ccccc4nc3O)cc2c1)N1CCNCC1 to the correct category.
hi

Exam item: assign CN1CCN(S(=O)(=O)c2ccc3[nH]c(-c4cc5ccccc5nc4O)cc3c2)CC1 to the correct category.
hi

Exam item: assign O=C(NC1CCNC1)c1ccc2[nH]c(-c3cc4ccccc4nc3O)cc2c1 (configuration not stated) to the correct category.
lo

Exam item: assign O=c1[nH]c2ccccc2cc1-c1cc2cc(S(=O)(=O)NC3CCNC3)ccc2[nH]1 (configuration not stated) to the correct category.
hi

* * *

assay.explanation: Oral bioavailability in rat (dose 10 mg/kg p.o.)
Assay type: ADME, organism-based
conditions.used: in vivo
Hi there, I'd appreciate the recorded bioavailability for every entry that follows.
Give bare numbers, in %.

- CN1CCN(C(=O)c2ccc3[nH]c(-c4cc5ccccc5nc4O)cc3c2)CC1: 31

Return the recorded bioavailability value; entry: CN1CCN(S(=O)(=O)c2ccc3[nH]c(-c4cc5ccccc5nc4O)cc3c2)CC1
54

* * *

assay.explanation: Partition coefficient (logP)
Format: physicochemical
conditions.used: octanol/water
attribute.measured: logP

• CN1CCN(C(=O)c2ccc3[nH]c(-c4cc5ccccc5nc4O)cc3c2)CC1 = 2.6

Please go through the list and note logP for each compound.
1. O=C(O)C1CCN(CCCOc2ccc3[nH]c(-c4cc5ccccc5nc4O)cc3c2)CC1
2. O=c1[nH]c2ccccc2cc1-c1cc2cc(S(=O)(=O)N3CCNCC3)ccc2[nH]1

1. 0.9
2. 2.3

Please go through the list and note logP for each compound.
1. O=C(c1ccc2[nH]c(-c3cc4ccccc4nc3O)cc2c1)N1CCNCC1
2. CN1CCN(S(=O)(=O)c2ccc3[nH]c(-c4cc5ccccc5nc4O)cc3c2)CC1

1.7
3

* * *

assay.explanation: Volume distribution in monkey after administration of 1 mg/kg iv
Format: ADME, organism-based
Set-up: dose 1 mg/kg, route intravenous
conditions.used: cercopithecidae, in vivo, read-out: Vss
attribute.measured: Vd
Just the number plus its unit, please.

- CN1CCN(S(=O)(=O)c2ccc3[nH]c(-c4cc5ccccc5nc4O)cc3c2)CC1: 2.1 L/kg

Return the recorded Vd value; entry: CN1CCN(C(=O)c2ccc3[nH]c(-c4cc5ccccc5nc4O)cc3c2)CC1
0.9 L/kg

* * *

assay.explanation: Oral bioavailability in rat after administration of 10 mg/kg po
Assay type: ADME, organism-based
conditions.used: in vivo
attribute.measured: bioavailability (%)
Answers are plain numbers, in %.

Return the recorded bioavailability value; entry: COCCN(C)CCOc1ccc2[nH]c(-c3cc4ccccc4nc3O)cc2c1
20

* * *

assay.explanation: Cmax in dog after administration of 1 mg/kg iv
Format: ADME, organism-based, Canis lupus familiaris
Design: dose 1 mg/kg, route intravenous
conditions.used: in vivo
Hi there, I'd appreciate the recorded Cmax for every entry that follows.
Numbers only, in nM.

• CN1CCN(S(=O)(=O)c2ccc3[nH]c(-c4cc5ccccc5nc4O)cc3c2)CC1 = 5200

Moving on to another compound below.
Return the recorded Cmax value; entry: CN1CCN(C(=O)c2ccc3[nH]c(-c4cc5ccccc5nc4O)cc3c2)CC1
160

* * *

assay.explanation: Plasma clearance in dog after administration of 1 mg/kg iv
Assay type: ADME, organism-based, Canis lupus familiaris
Set-up: dose 1 mg/kg, route intravenous
Hi there, I'd appreciate the recorded clearance for every entry that follows.
One number for each entry, in mL/min/kg.

* CN1CCN(C(=O)c2ccc3[nH]c(-c4cc5ccccc5nc4O)cc3c2)CC1 | 19

Moving on to another molecule below.
Return the recorded clearance value; entry: CN1CCN(S(=O)(=O)c2ccc3[nH]c(-c4cc5ccccc5nc4O)cc3c2)CC1
0.5

* * *

Hi there, I'd appreciate the recorded half-life for every entry that follows.
assay.explanation: Half life in dog plasma after administration of 1 mg/kg iv
Assay type: ADME, organism-based, Canis lupus familiaris
Design: dose 1 mg/kg, route intravenous

* CN1CCN(S(=O)(=O)c2ccc3[nH]c(-c4cc5ccccc5nc4O)cc3c2)CC1 | 6.4 h

Moving on to another molecule below.
Return the recorded half-life value; entry: CN1CCN(C(=O)c2ccc3[nH]c(-c4cc5ccccc5nc4O)cc3c2)CC1
2.4 h

* * *

assay.explanation: Volume distribution in dog after administration of 1 mg/kg iv
Type: ADME, organism-based, Canis lupus familiaris
Design: dose 1 mg/kg, route intravenous
conditions.used: in vivo, read-out: Vss
attribute.measured: Vd (L/kg)
One number for each entry, in L/kg.

* CN1CCN(C(=O)c2ccc3[nH]c(-c4cc5ccccc5nc4O)cc3c2)CC1 | 2.9

Moving on to another compound below.
Return the recorded Vd value; entry: CN1CCN(S(=O)(=O)c2ccc3[nH]c(-c4cc5ccccc5nc4O)cc3c2)CC1
0.3

* * *

assay.explanation: Plasma clearance in dog after administration of 0.25 mg/kg iv
Type: ADME, organism-based, Canis lupus familiaris
Parameters: dose 0.25 mg/kg, route intravenous
attribute.measured: clearance

Return the recorded clearance value; entry: COCCN(C)CCOc1ccc2[nH]c(-c3cc4ccccc4nc3O)cc2c1
> 50 mL/min/kg

* * *

target.of.assay: Vascular endothelial growth factor receptor 2 (Homo sapiens)
Sequence (P35968 whole entry): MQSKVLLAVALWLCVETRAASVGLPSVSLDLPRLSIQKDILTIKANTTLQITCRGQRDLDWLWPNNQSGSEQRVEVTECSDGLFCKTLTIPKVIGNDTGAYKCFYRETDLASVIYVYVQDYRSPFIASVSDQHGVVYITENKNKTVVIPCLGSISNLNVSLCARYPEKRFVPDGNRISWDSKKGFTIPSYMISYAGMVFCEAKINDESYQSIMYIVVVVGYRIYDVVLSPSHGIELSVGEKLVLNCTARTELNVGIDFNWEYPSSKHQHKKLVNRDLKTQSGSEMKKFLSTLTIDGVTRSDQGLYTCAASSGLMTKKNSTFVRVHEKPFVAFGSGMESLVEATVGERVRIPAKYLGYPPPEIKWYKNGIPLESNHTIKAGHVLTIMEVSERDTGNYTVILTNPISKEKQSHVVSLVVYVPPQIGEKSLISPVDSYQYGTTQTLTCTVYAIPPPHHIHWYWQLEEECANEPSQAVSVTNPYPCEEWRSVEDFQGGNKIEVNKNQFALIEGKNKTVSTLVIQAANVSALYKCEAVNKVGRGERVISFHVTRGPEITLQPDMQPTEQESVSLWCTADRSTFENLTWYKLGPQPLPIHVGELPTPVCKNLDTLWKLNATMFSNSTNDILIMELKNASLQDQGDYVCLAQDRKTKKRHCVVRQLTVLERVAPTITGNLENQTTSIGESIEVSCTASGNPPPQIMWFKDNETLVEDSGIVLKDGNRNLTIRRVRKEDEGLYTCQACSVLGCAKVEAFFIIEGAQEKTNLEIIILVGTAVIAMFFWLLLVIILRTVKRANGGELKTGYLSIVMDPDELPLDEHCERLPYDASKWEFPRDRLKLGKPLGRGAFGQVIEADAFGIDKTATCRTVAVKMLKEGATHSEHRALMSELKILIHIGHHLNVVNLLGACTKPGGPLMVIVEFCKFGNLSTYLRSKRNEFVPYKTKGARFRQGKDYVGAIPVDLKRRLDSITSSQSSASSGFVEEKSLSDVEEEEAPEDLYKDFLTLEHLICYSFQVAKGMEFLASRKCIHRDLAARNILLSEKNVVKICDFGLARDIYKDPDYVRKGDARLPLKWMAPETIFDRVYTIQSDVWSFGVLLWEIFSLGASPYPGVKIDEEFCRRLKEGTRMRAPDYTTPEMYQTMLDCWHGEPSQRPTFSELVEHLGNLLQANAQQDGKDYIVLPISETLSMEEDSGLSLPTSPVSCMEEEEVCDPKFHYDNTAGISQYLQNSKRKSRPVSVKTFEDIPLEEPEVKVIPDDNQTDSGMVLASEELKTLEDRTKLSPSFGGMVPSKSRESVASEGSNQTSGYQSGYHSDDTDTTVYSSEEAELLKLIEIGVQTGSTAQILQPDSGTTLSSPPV
attribute.measured: IC50 (nM)
One number for each entry, in nM.

Solved entries:
• O=c1[nH]c2ccccc2cc1-c1cc2cc(S(=O)(=O)NC3CCNC3)ccc2[nH]1 (configuration not stated) = 14
• NC1CCN(C(=O)c2ccc3[nH]c(-c4cc5ccccc5nc4O)cc3c2)C1 (configuration not stated) = 5
• COCCN(C)CCOc1ccc2[nH]c(-c3cc4ccccc4nc3O)cc2c1 = 7
• NC1CCN(S(=O)(=O)c2ccc3[nH]c(-c4cc5ccccc5nc4O)cc3c2)C1 (configuration not stated) = 16
• CN1CCN(C(=O)c2ccc3[nH]c(-c4cc5ccccc5nc4O)cc3c2)CC1 = 5
• O=c1[nH]c2ccccc2cc1-c1cc2cc(S(=O)(=O)N3CCNCC3)ccc2[nH]1 = 11

Return the recorded IC50 value; entry: CN1CCN(S(=O)(=O)c2ccc3[nH]c(-c4cc5ccccc5nc4O)cc3c2)CC1
10

* * *

assay.explanation: Oral bioavailability in dog (dose 1 mg/kg p.o.)
Format: ADME, organism-based, Canis lupus familiaris
conditions.used: in vivo
attribute.measured: bioavailability (%)
Numbers only, in %.

Please go through the list and note bioavailability for each compound.
1. CN1CCN(S(=O)(=O)c2ccc3[nH]c(-c4cc5ccccc5nc4O)cc3c2)CC1
2. CN1CCN(C(=O)c2ccc3[nH]c(-c4cc5ccccc5nc4O)cc3c2)CC1

1. 63
2. 15

* * *

assay.explanation: Volume distribution in rat after administration of 2 mg/kg iv
Type: ADME, organism-based
Set-up: dose 2 mg/kg, route intravenous
conditions.used: in vivo, read-out: Vss
Hi there, I'd appreciate the recorded Vd for every entry that follows.

Solved entries:
* CN1CCN(C(=O)c2ccc3[nH]c(-c4cc5ccccc5nc4O)cc3c2)CC1 | 0.7 L/kg
* CN1CCN(S(=O)(=O)c2ccc3[nH]c(-c4cc5ccccc5nc4O)cc3c2)CC1 | 0.9 L/kg

Moving on to another compound below.
Return the recorded Vd value; entry: COCCN(C)CCOc1ccc2[nH]c(-c3cc4ccccc4nc3O)cc2c1
5 L/kg

* * *

target.of.assay: UniProtKB Q12809
Sequence (Q12809 whole entry): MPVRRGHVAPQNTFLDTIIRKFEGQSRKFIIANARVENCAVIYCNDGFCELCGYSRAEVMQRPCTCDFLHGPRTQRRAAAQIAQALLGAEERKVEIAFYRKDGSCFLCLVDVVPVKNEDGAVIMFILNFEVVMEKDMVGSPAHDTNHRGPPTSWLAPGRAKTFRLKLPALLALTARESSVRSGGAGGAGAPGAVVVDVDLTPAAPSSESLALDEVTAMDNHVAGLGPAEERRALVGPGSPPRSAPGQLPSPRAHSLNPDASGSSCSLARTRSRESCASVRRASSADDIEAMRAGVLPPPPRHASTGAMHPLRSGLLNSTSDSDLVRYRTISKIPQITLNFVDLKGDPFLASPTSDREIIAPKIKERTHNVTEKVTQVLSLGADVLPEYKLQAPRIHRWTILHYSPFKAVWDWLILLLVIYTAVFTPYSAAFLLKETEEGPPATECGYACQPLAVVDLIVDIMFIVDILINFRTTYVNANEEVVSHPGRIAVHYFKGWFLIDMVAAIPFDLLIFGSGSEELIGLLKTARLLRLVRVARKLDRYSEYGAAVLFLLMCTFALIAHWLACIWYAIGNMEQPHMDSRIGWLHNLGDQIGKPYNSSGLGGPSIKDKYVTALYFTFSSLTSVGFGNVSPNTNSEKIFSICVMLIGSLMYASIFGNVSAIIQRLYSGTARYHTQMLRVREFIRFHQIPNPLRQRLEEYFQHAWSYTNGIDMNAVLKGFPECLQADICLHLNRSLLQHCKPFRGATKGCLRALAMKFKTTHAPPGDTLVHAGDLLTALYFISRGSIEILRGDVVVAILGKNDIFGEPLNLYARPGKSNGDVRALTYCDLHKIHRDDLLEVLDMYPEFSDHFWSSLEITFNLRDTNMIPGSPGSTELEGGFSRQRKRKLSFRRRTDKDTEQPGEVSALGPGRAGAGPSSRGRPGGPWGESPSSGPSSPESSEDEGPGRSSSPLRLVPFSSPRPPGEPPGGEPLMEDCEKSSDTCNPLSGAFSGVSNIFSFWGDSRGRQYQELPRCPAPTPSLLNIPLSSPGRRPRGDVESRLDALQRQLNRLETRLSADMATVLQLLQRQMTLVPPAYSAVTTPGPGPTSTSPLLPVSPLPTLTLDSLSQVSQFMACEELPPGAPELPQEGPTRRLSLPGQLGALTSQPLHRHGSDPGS
assay.explanation: Affinity for HERG voltage-gated potassium channel subunit Kv11.1
So basically: IP at 3000 nM or higher? That is class 1. Lower than 3000 nM? That is class 0.

// known answers, use as guide
• O=c1[nH]c2ccccc2cc1-c1cc2cc(S(=O)(=O)N3CCNCC3)ccc2[nH]1 = class 0
• O=c1[nH]c2ccccc2cc1-c1cc2cc(S(=O)(=O)NC3CCNC3)ccc2[nH]1 (configuration not stated) = class 0
• O=C(NC1CCNC1)c1ccc2[nH]c(-c3cc4ccccc4nc3O)cc2c1 (configuration not stated) = class 1
• NC1CCN(C(=O)c2ccc3[nH]c(-c4cc5ccccc5nc4O)cc3c2)C1 (configuration not stated) = class 1
• O=C(c1ccc2[nH]c(-c3cc4ccccc4nc3O)cc2c1)N1CCNCC1 = class 1
• CC(=O)N1CCN(CCOc2ccc3[nH]c(-c4cc5ccccc5nc4O)cc3c2)CC1 = class 0
• COCCN(C)CCOc1ccc2[nH]c(-c3cc4ccccc4nc3O)cc2c1 = class 0
• NC1CCN(S(=O)(=O)c2ccc3[nH]c(-c4cc5ccccc5nc4O)cc3c2)C1 (configuration not stated) = class 0
• CN1CCN(C(=O)c2ccc3[nH]c(-c4cc5ccccc5nc4O)cc3c2)CC1 = class 1
• CN1CCN(S(=O)(=O)c2ccc3[nH]c(-c4cc5ccccc5nc4O)cc3c2)CC1 = class 1

With those in mind, consider the next compound.
Does Oc1nc2ccccc2cc1-c1cc2cc(OCCN3CCCCC3)ccc2[nH]1 have a reported IP of at least 3000 nM?
class 0
